- Target: EGFR (L858R T790M C797S) (Homo sapiens, UniProt P00533, C797S/L858R/T790M)
- Sequence (P00533 25-1210 T790M/C797S/L858R): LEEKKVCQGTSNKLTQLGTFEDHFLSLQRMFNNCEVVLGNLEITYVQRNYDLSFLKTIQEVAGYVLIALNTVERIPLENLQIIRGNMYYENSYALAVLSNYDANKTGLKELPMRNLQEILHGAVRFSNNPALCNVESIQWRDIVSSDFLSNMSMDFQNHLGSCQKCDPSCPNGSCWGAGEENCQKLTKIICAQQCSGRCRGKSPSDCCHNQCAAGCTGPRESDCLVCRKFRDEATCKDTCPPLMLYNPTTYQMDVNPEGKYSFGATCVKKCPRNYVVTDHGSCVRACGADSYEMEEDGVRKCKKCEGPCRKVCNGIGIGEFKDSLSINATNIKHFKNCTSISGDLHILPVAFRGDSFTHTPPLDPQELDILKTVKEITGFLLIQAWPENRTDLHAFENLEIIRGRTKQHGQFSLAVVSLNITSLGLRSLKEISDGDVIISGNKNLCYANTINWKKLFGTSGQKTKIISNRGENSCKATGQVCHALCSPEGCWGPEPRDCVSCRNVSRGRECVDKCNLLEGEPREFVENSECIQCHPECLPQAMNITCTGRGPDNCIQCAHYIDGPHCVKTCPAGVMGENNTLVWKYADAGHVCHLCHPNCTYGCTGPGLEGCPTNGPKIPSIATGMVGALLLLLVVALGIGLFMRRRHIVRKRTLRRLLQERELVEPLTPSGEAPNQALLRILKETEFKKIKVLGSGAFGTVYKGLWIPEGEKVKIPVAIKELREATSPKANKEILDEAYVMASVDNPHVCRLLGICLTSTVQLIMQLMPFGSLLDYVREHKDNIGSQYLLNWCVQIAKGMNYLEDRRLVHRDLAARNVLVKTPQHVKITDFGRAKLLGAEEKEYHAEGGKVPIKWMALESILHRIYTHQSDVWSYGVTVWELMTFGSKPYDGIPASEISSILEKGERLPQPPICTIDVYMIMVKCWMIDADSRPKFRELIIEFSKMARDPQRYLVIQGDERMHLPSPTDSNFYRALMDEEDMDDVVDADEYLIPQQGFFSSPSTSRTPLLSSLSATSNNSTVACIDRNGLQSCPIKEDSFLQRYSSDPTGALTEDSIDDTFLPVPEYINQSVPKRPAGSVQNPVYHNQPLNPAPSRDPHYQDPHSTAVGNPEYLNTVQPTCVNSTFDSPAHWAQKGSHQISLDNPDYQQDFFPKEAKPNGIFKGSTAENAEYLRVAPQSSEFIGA
- Run Description: Biochemical EGFR inhibition assay (Caliper mobility shift), EGFR LRTMCS mutant
- Assay Setup: inhibitory activity against EGFR LRTMCS mutant; apparent IC50; read-out: Ext Enz LRTMCS
pIC50: −log10 of the molar value.
Reported Metric: pIC50

- Compound: "COCCO[C@H]1CCN(c2nccc(Nc3cc4c(C(C)C)ccc(N5CC(CS(C)(=O)=O)C5)c4cn3)n2)C[C@H]1O (racemic)"
  pIC50: "7.00 to 7.52"
- Compound: "COCCO[C@H]1CCN(c2nccc(Nc3cc4c(F)ccc(N5C[C@H](CS(C)(=O)=O)[C@H]5C)c4cn3)n2)C[C@H]1F (single isomer, unassigned)"
  pIC50: "≥ 7.82"

Exercise: Report pIC50 for CO[C@@H]1CCN(c2nccc(Nc3cc4c(C(C)C)cnc(N5CC(CS(C)(=O)=O)C5)c4cn3)n2)C[C@]1(C)F (single isomer, unassigned) please.
Key: ≥ 7.82

Exercise: What value of measured pIC50 is listed for CO[C@H]1CCN(c2nccc(Nc3cc4c(C(C)C)cnc(N5C[C@H](CS(C)(=O)=O)[C@H]5C)c4cn3)n2)C[C@@H]1O (single isomer, unassigned) ?
Key: ≥ 7.82

====

Documented IC50 across a set of molecules
- Target: EGFR (L858R T790M C797S) (Homo sapiens, UniProt P00533, C797S/L858R/T790M)
- Run Description: Biochemical EGFR inhibition assay (Caliper mobility shift), EGFR LRTMCS mutant
- Assay Setup: inhibitory activity against EGFR LRTMCS mutant; apparent IC50; read-out: Ext Enz LRTMCS

Answered examples (4):
- Molecule: "[2H]C([2H])([2H])O[C@H]1CCN(c2nccc(Nc3cc4c(C(C)C)ccc(N5CC(CS(C)(=O)=O)C5)c4cn3)n2)CC1(F)F (single isomer, unassigned) [Compound 286]"
  Target: "EGFR (L858R T790M C797S) (Homo sapiens, UniProt P00533, C797S/L858R/T790M)"
  IC50: "15.1 to 20 nM"
- Molecule: "CC(C)c1ccc(N2CC(CS(C)(=O)=O)C2)c2cnc(Nc3ccnc(N4CC[C@@](C)(O)[C@@H](F)C4)n3)cc12 (single isomer, unassigned)"
  Target: "EGFR (L858R T790M C797S) (Homo sapiens, UniProt P00533, C797S/L858R/T790M)"
  IC50: "≤ 15 nM"
- Molecule: "CC(C)c1ccc(N2C[C@H](CS(C)(=O)=O)[C@H]2C)c2cnc(Nc3ccnc(N4CC[C@](F)(CO)C4)n3)cc12 (single isomer, unassigned) [Compound 271]"
  Target: "EGFR (L858R T790M C797S) (Homo sapiens, UniProt P00533, C797S/L858R/T790M)"
  IC50: "≤ 15 nM"
- Molecule: "CCS(=O)(=O)CC1CN(c2ccc(C(C)C)c3cc(Nc4ccnc(N5C[C@@H](F)[C@@H](O)C(C)(C)C5)n4)ncc23)C1 (single isomer, unassigned)"
  Target: "EGFR (L858R T790M C797S) (Homo sapiens, UniProt P00533, C797S/L858R/T790M)"
  IC50: "≤ 15 nM"

// below: IC50 requested for another molecule
Exercise: Which IC50 reading was recorded for the molecule CC(C)c1ccc(N2CC(CS(C)(=O)=O)C2)c2cnc(Nc3ccnc(N4CCC5(OCCO5)[C@H](F)C4)n3)cc12 (single isomer, unassigned) [Compound 181] ?
Key: ≤ 15 nM

====

- Target: EGFR (L858R T790M C797S) (Homo sapiens, UniProt P00533, C797S/L858R/T790M)
- Run Description: Biochemical EGFR inhibition assay (Caliper mobility shift), EGFR LRTMCS mutant
- Assay Setup: inhibitory activity against EGFR LRTMCS mutant; apparent IC50; read-out: Ext Enz LRTMCS
Reported Metric: IC50

Exercise: Return IC50 measured with EGFR (L858R T790M C797S) (Homo sapiens, UniProt P00533, C797S/L858R/T790M) given this molecule: CO[C@H]1CCN(c2nccc(Nc3cc4c(C(C)C)ccc(N5C[C@H](CS(C)(=O)=O)[C@H]5C)c4cn3)n2)C[C@@H]1CO (single isomer, unassigned) [Compound 172]
Key: ≤ 15 nM

Exercise: Field: IC50 (EGFR (L858R T790M C797S) (Homo sapiens, UniProt P00533, C797S/L858R/T790M)). Entry: CO[C@@H]1[C@H](F)CN(c2nccc(Nc3cc4c(C(C)C)ccc(N5C[C@H](CS(C)(=O)=O)[C@H]5C)c4cn3)n2)C[C@@H]1O (racemic) [Compound 198]
Key: 15.1 to 20 nM

Exercise: Please provide the recorded IC50 for CCS(=O)(=O)C[C@H]1CN(c2ccc(C(C)C)c3cc(Nc4ccnc(N5CC[C@H](OCCO)[C@H](F)C5)n4)ncc23)[C@@H]1C [Compound 243] , tested on EGFR (L858R T790M C797S) (Homo sapiens, UniProt P00533, C797S/L858R/T790M).
Key: ≤ 15 nM

Exercise: Item: CCS(=O)(=O)C[C@H]1CN(c2cnc(C(C)C)c3cc(Nc4ccnc(N5CC[C@H](OCCO)[C@H](F)C5)n4)ncc23)[C@@H]1C [Compound 299] Test system: EGFR (L858R T790M C797S) (Homo sapiens, UniProt P00533, C797S/L858R/T790M) Read-out: IC50 Value: ?
Key: ≤ 15 nM

Exercise: Form field - read-out: IC50; system: EGFR (L858R T790M C797S) (Homo sapiens, UniProt P00533, C797S/L858R/T790M); submitted item: CO[C@H]1CCN(c2nccc(Nc3cc4c(C(C)C)ncc(N5C[C@H](CS(C)(=O)=O)[C@H]5C)c4cn3)n2)C[C@H]1F [Compound 140]
Key: ≤ 15 nM

Exercise: Recorded IC50 for CNCCO[C@H]1CCN(c2nccc(Nc3cc4c(C(C)C)ccc(N5C[C@H](CS(C)(=O)=O)[C@H]5C)c4cn3)n2)C[C@H]1F [Compound 297] with EGFR (L858R T790M C797S) (Homo sapiens, UniProt P00533, C797S/L858R/T790M), please?
Key: ≤ 15 nM

Exercise: Can you look up IC50 on EGFR (L858R T790M C797S) (Homo sapiens, UniProt P00533, C797S/L858R/T790M) for CO[C@@H]1[C@H](F)CN(c2nccc(Nc3cc4c(C(C)C)ccc(N5C[C@H](CS(C)(=O)=O)[C@H]5C)c4cn3)n2)C[C@@H]1O (single isomer, unassigned) [Compound 203] ?
Key: 15.1 to 20 nM

Exercise: Request body: readout IC50, system EGFR (L858R T790M C797S) (Homo sapiens, UniProt P00533, C797S/L858R/T790M), query CO[C@@H]1CCN(c2nccc(Nc3cc4c(C(C)C)cnc(N5C[C@H](CS(C)(=O)=O)[C@H]5C)c4cn3)n2)C[C@@H]1F [Compound 132] . Return the value.
Key: ≤ 15 nM

Exercise: # value lookup — system EGFR (L858R T790M C797S) (Homo sapiens, UniProt P00533, C797S/L858R/T790M), readout IC50, item CC(C)c1ccc(N2CC(CS(C)(=O)=O)C2)c2cnc(Nc3ccnc(N4CC[C@@H](O)[C@@H](F)C4)n3)cc12 [Compound 28]
Key: ≤ 15 nM

====

# Lookup of reported pIC50 keyed by entry
- Target: EGFR (L858R T790M C797S) (Homo sapiens, UniProt P00533, C797S/L858R/T790M)
- Run Description: Biochemical EGFR inhibition assay (Caliper mobility shift), EGFR LRTMCS mutant
- Assay Setup: inhibitory activity against EGFR LRTMCS mutant; apparent IC50; read-out: Ext Enz LRTMCS
pIC50: −log10 of the molar value.

- Compound: "CC(C)c1ccc(N2C[C@@H](CS(C)(=O)=O)[C@@H]2C)c2cnc(Nc3ccnc(N4CC[C@@H]5C[C@H]4CO5)n3)cc12 (single isomer, unassigned)"
  Result: "≥ 7.82"
- Compound: "C[C@H](CO)c1ccc(N2C[C@H](CS(C)(=O)=O)[C@H]2C)c2cnc(Nc3ccnc(N4CC[C@](C)(O)[C@H](F)C4)n3)cc12 (single isomer, unassigned)"
  Result: "≥ 7.82"
- Compound: "CC(C)c1cnc(N2CC(CS(C)(=O)=O)C2)c2cnc(Nc3ccnc(N4C[C@H]5COC[C@H]5C4)n3)cc12"
  Result: "7.70 to 7.82"
- Compound: "COCCO[C@@H]1CCN(c2nccc(Nc3cc4c(C(C)C)ccc(N5C[C@H](CS(C)(=O)=O)[C@H]5C)c4cn3)n2)C[C@@H]1F (single isomer, unassigned)"
  Result: "≥ 7.82"
- Compound: "CCS(=O)(=O)C[C@H]1CN(c2nnc(C(C)C)c3cc(Nc4ccnc(N5CC[C@@H](OC)[C@@H](F)C5)n4)ncc23)[C@@H]1C"
  Result: "≥ 7.82"

We next turn to a different compound, shown below.
Exercise: So what's the measured pIC50 for this one? CCS(=O)(=O)CC1CN(c2cccc3cc(Nc4ccnc(N5C[C@H](F)[C@H](O)C(C)(C)C5)n4)ncc23)C1 (single isomer, unassigned)
Key: ≥ 7.82

The measurements presented in this section are drawn from patent US12172983B2.
